Molecular target: Androgen receptor (Homo sapiens)
Experiment: qHTS assay to identify small molecule antagonists of the androgen receptor (AR) signaling pathway using the MDA cell line in the presence of 0.5 nM R1881 (AID 1259243); also: nearly all actives have a fitted effect of over 50% in size; also: potency is read from the fitted curve at half-maximal effect
Details: MDA-kb2 MMTV-luciferase, R1881 0.5 nM, 16 h; series mostly up to 92.4 µM
Records with an inconclusive call do not appear. Activity calls are given as the source filed them. Calls follow the shape of the dose curve; as a rule, active = well fitted inhibition curve with a large enough effect in the repeat runs; inconclusive = weak or mixed curves; inactive = no such curve, though single readings can be large or run the other way.
Measured endpoint: Potency

See these solved cases before continuing.
- CCCCC(CC)CN1CN(CC(CC)CCCC)CC(C)(N)C1 (stereo not drawn): 26.6 µM (active)
- O=C(O)Cc1ccccc1Nc1c(Cl)cccc1Cl: inactive
- CCCCCCCCCCOC(=O)c1ccccc1C(=O)OCCCCCCCC: inactive
- c1ccsc1: inactive

Potency recorded for this molecule, CC(CO)Oc1ccccc1 (stereo not drawn) , is inactive

Potency in this record for "CCN(CC)c1ccc2c(-c3ccc(S(=O)(=O)O)cc3S(=O)(=O)[O-])c3ccc(=[N+](CC)CC)cc-3oc2c1" : 22.4 µM (active)

The molecule listed as "ClCCl" shows Potency equal to inactive

The molecule identified as "Nc1ccc(C(=O)O)c(O)c1" registered its Potency at inactive

Summary for this molecule, CCCCCCOC(=O)C(C)CC (stereo not drawn) : Potency is inactive

Query "CN(C)[C@@H](CCOc1cccc2ccccc12)c1ccccc1" yields Potency of 26.6 µM (active)

Note to self: Potency recorded for "CCOc1ccc2ccccc2c1C(=O)N[C@@H]1C(=O)N2[C@@H]1SC(C)(C)[C@@H]2C(=O)O" was inactive

Short answer for "CC(=O)OCC=C(C)C" : Potency was inactive

get_value(item= "Nc1cc(Cl)c(O)c(Cl)c1" , readout=Potency) returns inactive
